These entries and their values trace back to PubChem BioAssay (NCATS).

# run-description: MultiTox-Fluor Cytotoxicity Assay - LYMP1-002 - Dead Cells (AID 960);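 note: cells exposed to compound for 16 h at 37 °C; nearly all actives have a fitted effect of over 60% in size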
# condition-label: LYMP1-002 lymphoblastoid cells, dead-cell protease fluorescence; series mostly up to 46.1 µM
# Description: NIH Chemical Genomics Center [NCGC] NIH Molecular Libraries Screening Centers Network [MLSCN] National Institutes of Environmental Health Sciences [NIEHS] National Toxicology Program [NTP] We have developed a 1536-well cell-based assay for quantitative high throughput screening (qHTS) against a number of cell lines to determine in vitro cytotoxicity of small molecules. […] 8. Detection; dead-cell fluorescence (Ex/Em=485/520); EnVision plate reader […]
Inconclusive results are not listed. Activity calls are given as the source filed them. Calls come from the whole dose curve; as a rule, active = well fitted cell-killing curve with a large enough effect; inconclusive = small, poorly fitted or top-dose-only effect, or effect the other way; inactive = no such curve, though single readings can be large or run the other way.
Use one of these outcomes when replying: active, inactive

Before answering, review these 3 worked examples.
>  <compound>
Cc1cc(Cl)ccc1O

>  <class>
inactive

$$$$
>  <compound>
N#CCCC#N

>  <class>
inactive

$$$$
>  <compound>
O=C(Cl)c1ccccc1F

>  <class>
inactive

$$$$

Attention now shifts to the item below.
Query block: Write down the call the test reported for this compound. Item: CC(C)(COCC1CO1)COCC1CO1 (configuration not stated)
Result block: inactive
